The reader will find reported pEC50 values listed item by item below.
Biological target: GPR40 (Homo sapiens, UniProt O14842)
Sequence (O14842 whole entry): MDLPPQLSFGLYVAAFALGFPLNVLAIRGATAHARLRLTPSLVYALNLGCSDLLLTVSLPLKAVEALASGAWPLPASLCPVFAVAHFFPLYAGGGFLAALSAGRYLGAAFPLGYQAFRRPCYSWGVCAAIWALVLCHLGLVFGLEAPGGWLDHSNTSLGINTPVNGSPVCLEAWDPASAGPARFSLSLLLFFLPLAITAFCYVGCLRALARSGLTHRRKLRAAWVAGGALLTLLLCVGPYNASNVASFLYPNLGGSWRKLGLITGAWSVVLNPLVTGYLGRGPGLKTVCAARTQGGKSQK
Assay: Cell-based aequorin assay (CHO cells stably expressing GPR40 and aequorin)
Parameters: expressed in transfected cells; host or cells: CHO cells stably transfected with GPR40 and aequorin
Settings: activation of human GPR40, CHO cells, 0.01% HSA
pEC50: −log10 of the molar value.

{"COMPOUND": "COc1ccc(F)c(-c2ccc(COc3cccc([C@@H](CC(=O)O)C4CC4)c3)cc2C2=CCOCC2)c1 (single isomer, unassigned)", "pEC50": "5.00 to 6.00"}
{"COMPOUND": "COc1ccc(F)c(-c2ccc(COc3cccc(CCC(=O)O)c3)cc2C2CCCC2(C)C)c1 (stereo not drawn)", "pEC50": "6.00 to 7.00"}
{"COMPOUND": "COc1ccc(F)c(-c2ccc(COc3cncc(CCC(=O)O)c3)cc2C(C)(C)C)c1", "pEC50": "5.00 to 6.00"}
{"COMPOUND": "C=CC(C)(C)C(OC)c1cc(COc2cccc(C(CC)CC(=O)O)c2)ccc1-c1cc(OC)ccc1F (single isomer, unassigned)", "pEC50": "5.00 to 6.00"}
{"COMPOUND": "COc1ccc(F)c(-c2ccc(COc3cccc(C(CC(=O)O)CC4CC4)c3)cc2C2CCCCCCC2)c1 (single isomer, unassigned)", "pEC50": "6.00 to 7.00"}
{"COMPOUND": "COc1ccc(F)c(-c2ccc(COc3cccc([C@H](C)CC(=O)O)c3)cc2C2=CCCC2(C)C)c1 (single isomer, unassigned)", "pEC50": "6.00 to 7.00"}

---

Target: GPR40 (Homo sapiens)
Assay: Cell-based aequorin assay (CHO cells stably expressing GPR40 and aequorin)
Set-up: expressed in transfected cells; host or cells: CHO cells stably transfected with GPR40 and aequorin
Conditions: activation of human GPR40, CHO cells, 0.01% HSA
The reader will find reported EC50 values listed item by item below.

{"COMPOUND": "COc1ccc(F)c(-c2ccc(COc3cccc([C@@H](CC(=O)O)c4ccon4)c3)cc2C2=CCCC2(C)C)c1 [Example 94.1]", "EC50": "1000 to 10000 nM"}
{"COMPOUND": "CC1(C)CCCC=C1c1cc(COc2cccc(C(CC(=O)O)C3CC3)c2)ccc1-c1cc(=O)[nH]cc1F (single isomer, unassigned) [Example 66.35]", "EC50": "1000 to 10000 nM"}
{"COMPOUND": "CCOc1ccc(F)c(-c2ccc(COc3cccc(C(CC(=O)O)C4CC4)c3)cc2C2CCCC2(C)C)c1 (single isomer, unassigned) [Example 66.26]", "EC50": "100 to 1000 nM"}
{"COMPOUND": "C=CC(C)(C)C(O)c1cc(COc2cccc(C(CC(=O)O)CC3CC3)c2)ccc1-c1cc(OC)ccc1F (single isomer, unassigned) [Example 69.40]", "EC50": "1000 to 10000 nM"}
{"COMPOUND": "CCC(CC(=O)O)c1cccc(OCc2ccc(-c3cc(OC)ccc3F)c(C3CCCCC3(C)C)c2)c1 (single isomer, unassigned) [Example 78.11]", "EC50": "10 to 100 nM"}
{"COMPOUND": "CCC(CC(=O)O)c1cc(F)cc(OCc2ccc(-c3cc(OC)ccc3F)c(C3=CCCC3(C)C)c2)c1 (single isomer, unassigned) [Example 88.2]", "EC50": "100 to 1000 nM"}

---

Target: GPR40 (Homo sapiens)
Assay: Cell-based aequorin assay (CHO cells stably expressing GPR40 and aequorin)
Parameters: expressed in transfected cells; host or cells: CHO cells stably transfected with GPR40 and aequorin
Settings: activation of human GPR40, CHO cells, 0.01% HSA

{"MOLECULE": "COc1ccc(F)c(-c2ccc(COc3cccc([C@@H](CC(=O)O)CC4CC4)c3)cc2C2CCCC2C)c1 (single isomer, unassigned)", "EC50": "100 to 1000 nM"}
{"MOLECULE": "COc1ccc(F)c(-c2ccc(COc3cccc([C@@H](CC(=O)O)C4CC4)c3)cc2CC(C)C)c1 (single isomer, unassigned)", "EC50": "100 to 1000 nM"}
{"MOLECULE": "CCCCCCOc1cc(COc2cccc([C@H](CCC)CC(=O)O)c2)ccc1-c1cc(OC)ccc1F (single isomer, unassigned)", "EC50": "100 to 1000 nM"}
{"MOLECULE": "C=CC(C)(C)[C@H](O)c1cc(COc2cccc([C@H](CCC)CC(=O)O)c2)ccc1-c1cc(OC)ccc1F (single isomer, unassigned)", "EC50": "1000 to 10000 nM"}
{"MOLECULE": "COc1ccc(F)c(-c2cc(F)c(COc3cccc([C@@H](CC(=O)O)C4CC4)c3F)cc2[C@H]2CCCC2(C)C)c1 (single isomer, unassigned)", "EC50": "10 to 100 nM"}
{"MOLECULE": "COCC1(c2cc(COc3cccc(C(CC(=O)O)C4CC4)c3F)ccc2-c2cc(OC)ncc2F)CCCC1 (single isomer, unassigned)", "EC50": "1000 to 10000 nM"}
{"MOLECULE": "CCC[C@H](CC(=O)O)c1cccc(OCc2ccc(-c3cc(OC)ccc3F)c(C3=CCCC3(C)C)c2)c1 (single isomer, unassigned)", "EC50": "100 to 1000 nM"}
{"MOLECULE": "CCC[C@H](CC(=O)O)c1cccc(OCc2ccc(-c3cc(OC)ccc3F)c(C3CCCC3(C)C)c2)c1 (single isomer, unassigned)", "EC50": "100 to 1000 nM"}
{"MOLECULE": "COc1ccc(F)c(-c2ccc(COc3cccc([C@@H](CC(=O)O)CC4CC4)c3)cc2C2CC(C)(C)CC(C)(C)C2)c1 (single isomer, unassigned)", "EC50": "100 to 1000 nM"}
{"MOLECULE": "CCCCOc1cc(COc2cccc([C@H](C)CC(=O)O)c2)ccc1-c1ccc(OC)cc1 (single isomer, unassigned)", "EC50": "1000 to 10000 nM"}
{"MOLECULE": "COc1cc(-c2cc(F)c(COc3cccc([C@@H](CC(=O)O)C4CC4)c3F)cc2[C@H]2CCCC2(C)C)c(F)cn1 (single isomer, unassigned)", "EC50": "10 to 100 nM"}
{"MOLECULE": "COc1ccc(F)c(-c2ccc(COc3cccc(C(C)CC(=O)O)c3)c(F)c2C(C)(C)C)c1 (single isomer, unassigned)", "EC50": "100 to 1000 nM"}

---

Molecular target: GPR40 (Homo sapiens, UniProt O14842)
Assay: Inositol phosphate accumulation assay (A9_GPR40 cells)
Assay type: cell-based
Set-up: expressed in transfected cells; host or cells: CHO cells stably transfected with GPR40 and aequorin
Details: inositol phosphate assay, A9_GPR40 cells, 1 hour; read-out: IP3 EC50

{"MOLECULE": "COc1cc(-c2ccc(COc3cccc(C(C)(C)CC(=O)O)c3)cc2C(OC)C(C)(C)C)c(F)cn1 (single isomer, unassigned) [Example 85.6]", "EC50": "10 to 100 nM"}
{"MOLECULE": "COc1cc(-c2ccc(COc3cccc([C@@H](CC(=O)O)C4CC4)c3F)cc2[C@@H]2CCCC2(C)C)c(F)cn1 (single isomer, unassigned) [Example 83.5]", "EC50": "10 to 100 nM"}
{"MOLECULE": "CCCCOc1cc(COc2cccc([C@H](C)CC(=O)O)c2)ccc1-c1cccc(OC)c1 (single isomer, unassigned) [Example 20]", "EC50": "100 to 1000 nM"}
{"MOLECULE": "COc1ccc(F)c(-c2ccc(COc3cccc(C(CC(=O)O)CC4CC4)c3)cc2C(C)C(C)(C)C)c1 (single isomer, unassigned) [Example 69.22]", "EC50": "< 10 nM"}
{"MOLECULE": "CCC(CC(=O)O)c1cccc(OCc2ccc(-c3cc(OC)ccc3F)c(C(OC)C(C)(C)CC)c2)c1 (single isomer, unassigned) [Example 78.14]", "EC50": "< 10 nM"}
{"MOLECULE": "COc1cccc(-c2ccc(COc3cccc(C(C)CC(=O)O)c3)cc2C2=CCCC2(C)C)c1 (single isomer, unassigned) [Example 64.20]", "EC50": "10 to 100 nM"}
{"MOLECULE": "COc1ccc(F)c(-c2cc(F)c(COc3cccc(C(CC(=O)O)CC4CC4)c3)cc2C2=CCCC2(C)C)c1 (single isomer, unassigned) [Example 69.30]", "EC50": "< 10 nM"}
{"MOLECULE": "COc1cccc(-c2ccc(COc3cccc(C(CC(=O)O)CC4CC4)c3)cc2C(C)(C)C)c1 (single isomer, unassigned) [Example 69.3]", "EC50": "10 to 100 nM"}
{"MOLECULE": "COc1ccc(F)c(-c2ccc(COc3cccc([C@H](C)CC(=O)O)c3)cc2C23CC4CC(CC(C4)C2)C3)c1 (single isomer, unassigned) [Example 64.16]", "EC50": "10 to 100 nM"}
{"MOLECULE": "CCC(CC(=O)O)c1cccc(OCc2cc(C3CCCC3(C)C)c(-c3cc(OC)ccc3F)cc2F)c1F (single isomer, unassigned) [Example 77.6]", "EC50": "< 10 nM"}
{"MOLECULE": "COc1ccc(F)c(-c2ccc(COc3cccc([C@@H](CC(=O)O)C4CC4)c3)cc2[C@@H](OCc2ccccc2)C(C)(C)C)c1 (single isomer, unassigned) [Example 66.28]", "EC50": "< 10 nM"}
{"MOLECULE": "CCC[C@H](CC(=O)O)c1cccc(OCc2ccc(-c3cc(OC)ccc3F)c(C3CCCC3(C)C)c2)c1 (single isomer, unassigned) [Example 67.11]", "EC50": "10 to 100 nM"}
